Below, each entry is listed alongside its reported MIC.
# System: Pseudomonas aeruginosa GN-315
# Method Notes: Bactericidal test (MIC), Pseudomonas aeruginosa GN-315
# Type: cell-based
# Experimental Setup: GN315; (15) Pseudomonas aeruginosa GN-315
Metric Name: MIC

Molecule	Measurement
CCOc1ccc2oc(=O)c(C(=O)N[C@@H](C(=O)N[C@@H]3C(=O)N4[C@@H]3SC(C)(C)[C@@H]4C(=O)O)c3ccccc3)cc2c1	3.13 mg/L
CC1(C)S[C@@H]2[C@H](NC(=O)[C@H](N)c3ccccc3)C(=O)N2[C@H]1C(=O)O [Ampicillin, ampicillin, reference compound]	> 400 mg/L
CC1(C)S[C@@H]2[C@H](NC(=O)[C@H](NC(=O)c3cc4cc(Br)cc(Br)c4oc3=O)c3ccccc3)C(=O)N2[C@H]1C(=O)O	200 mg/L

====

# Tested on: Pseudomonas aeruginosa IFO-3080
# Method Notes: Bactericidal test (MIC), Pseudomonas aeruginosa IFO-3080
# Type: cell-based
# Experimental Setup: IFO3080; (12) Pseudomonas aeruginosa IFO-3080; read-out: MIC
Metric Name: log10 of MIC (log10 of the value in µg/mL)

Compound	log10 of MIC
CC1(C)S[C@@H]2[C@H](NC(=O)[C@H](NC(=O)c3cc4ccccc4oc3=O)c3ccc(O)cc3)C(=O)N2[C@H]1C(=O)O [Example 16]	-0.10
CC(=O)Oc1ccc2oc(=O)c(C(=O)N[C@@H](C(=O)N[C@@H]3C(=O)N4[C@@H]3SC(C)(C)[C@@H]4C(=O)O)c3ccc(O)cc3)cc2c1 [Example 17]	-0.10
CC(=O)Nc1ccc2oc(=O)c(C(=O)N[C@@H](C(=O)N[C@@H]3C(=O)N4[C@@H]3SC(C)(C)[C@@H]4C(=O)O)c3ccccc3)cc2c1 [Example 20]	0.50
COc1cc(OC)c2cc(C(=O)N[C@@H](C(=O)N[C@@H]3C(=O)N4[C@@H]3SC(C)(C)[C@@H]4C(=O)O)c3ccccc3)c(=O)oc2c1 [Example 22]	0.19
CC(=O)Oc1ccc2oc(=O)c(C(=O)N[C@@H](C(=O)N[C@@H]3C(=O)N4[C@@H]3SC(C)(C)[C@@H]4C(=O)O)c3ccccc3)cc2c1 [Example 9]	-0.10
CCOc1ccc2oc(=O)c(C(=O)N[C@@H](C(=O)N[C@@H]3C(=O)N4[C@@H]3SC(C)(C)[C@@H]4C(=O)O)c3ccccc3)cc2c1 [Example 23]	-0.10
COc1cccc2cc(C(=O)N[C@@H](C(=O)N[C@@H]3C(=O)N4[C@@H]3SC(C)(C)[C@@H]4C(=O)O)c3ccc(O)cc3)c(=O)oc12 [Example 18]	-0.10
CC1(C)S[C@@H]2[C@H](NC(=O)[C@H](NC(=O)c3cc4cc(O)ccc4oc3=O)c3ccccc3)C(=O)N2[C@H]1C(=O)O [Example 10]	0.19
CC1(C)S[C@@H]2[C@H](NC(=O)[C@H](NC(=O)c3cc4cc([N+](=O)[O-])ccc4oc3=O)c3ccccc3)C(=O)N2[C@H]1C(=O)O [Example 13]	0.80
Cc1ccc2oc(=O)c(C(=O)N[C@@H](C(=O)N[C@@H]3C(=O)N4[C@@H]3SC(C)(C)[C@@H]4C(=O)O)c3ccccc3)c(C)c2c1 [Example 5]	1.10
COc1cccc2cc(C(=O)N[C@@H](C(=O)N[C@@H]3C(=O)N4[C@@H]3SC(C)(C)[C@@H]4C(=O)O)c3ccccc3)c(=O)oc12 [Example 6]	-0.10
CC1(C)S[C@@H]2[C@H](NC(=O)[C@H](NC(=O)c3cc4cc(Br)ccc4oc3=O)c3ccccc3)C(=O)N2[C@H]1C(=O)O [Example 3]	0.19
COc1cccc2oc(=O)c(C(=O)N[C@@H](C(=O)N[C@@H]3C(=O)N4[C@@H]3SC(C)(C)[C@@H]4C(=O)O)c3ccccc3)cc12 [Example 24]	-0.10
COC(=O)c1cccc2cc(C(=O)N[C@@H](C(=O)N[C@@H]3C(=O)N4[C@@H]3SC(C)(C)[C@@H]4C(=O)O)c3ccccc3)c(=O)oc12 [Example 14]	0.50
CC1(C)S[C@@H]2[C@H](NC(=O)[C@H](NC(=O)c3cc4cc(Cl)ccc4oc3=O)c3ccccc3)C(=O)N2[C@H]1C(=O)O [Example 2]	0.50
COc1ccc2oc(=O)c(C(=O)N[C@@H](C(=O)N[C@@H]3C(=O)N4[C@@H]3SC(C)(C)[C@@H]4C(=O)O)c3ccccc3)cc2c1 [Example 7]	0.19
CC(=O)Oc1ccc2cc(C(=O)N[C@@H](C(=O)N[C@@H]3C(=O)N4[C@@H]3SC(C)(C)[C@@H]4C(=O)O)c3ccccc3)c(=O)oc2c1 [Example 12]	0.19
Cc1cccc2cc(C(=O)N[C@@H](C(=O)N[C@@H]3C(=O)N4[C@@H]3SC(C)(C)[C@@H]4C(=O)O)c3ccccc3)c(=O)oc12 [Example 15]	1.10
CCOc1cccc2cc(C(=O)N[C@@H](C(=O)N[C@@H]3C(=O)N4[C@@H]3SC(C)(C)[C@@H]4C(=O)O)c3ccccc3)c(=O)oc12 [Example 19]	0.19
CC1(C)S[C@@H]2[C@H](NC(=O)[C@H](N)c3ccccc3)C(=O)N2[C@H]1C(=O)O [Ampicillin, ampicillin, reference compound]	2.30
CC1(C)S[C@@H]2[C@H](NC(=O)[C@H](NC(=O)c3cc4ccc(O)cc4oc3=O)c3ccccc3)C(=O)N2[C@H]1C(=O)O [Example 11]	0.50

====

# Tested on: Pseudomonas aeruginosa GN-315
# Method Notes: Bactericidal test (MIC), Pseudomonas aeruginosa GN-315
# Type: cell-based
# Experimental Setup: GN315; (15) Pseudomonas aeruginosa GN-315
Threshold check on MIC: strictly below 3 µg/mL is T; on or above 3 µg/mL is F.

Molecule	Group Label
Cc1ccc2oc(=O)c(C(=O)N[C@@H](C(=O)N[C@@H]3C(=O)N4[C@@H]3SC(C)(C)[C@@H]4C(=O)O)c3ccccc3)c(C)c2c1 [Example 5]	F
CC1(C)S[C@@H]2[C@H](NC(=O)[C@H](NC(=O)c3cc4cc([N+](=O)[O-])ccc4oc3=O)c3ccccc3)C(=O)N2[C@H]1C(=O)O [Example 13]	F
COc1cccc2cc(C(=O)N[C@@H](C(=O)N[C@@H]3C(=O)N4[C@@H]3SC(C)(C)[C@@H]4C(=O)O)c3ccc(O)cc3)c(=O)oc12 [Example 18]	F
CC1(C)S[C@@H]2[C@H](NC(=O)[C@H](NC(=O)c3cc4cc(Br)ccc4oc3=O)c3ccccc3)C(=O)N2[C@H]1C(=O)O [Example 3]	F
Cc1cccc2cc(C(=O)N[C@@H](C(=O)N[C@@H]3C(=O)N4[C@@H]3SC(C)(C)[C@@H]4C(=O)O)c3ccccc3)c(=O)oc12 [Example 15]	F
CC1(C)S[C@@H]2[C@H](NC(=O)[C@H](NC(=O)c3cc4ccccc4oc3=O)c3ccccc3)C(=O)N2[C@H]1C(=O)O [Example 1]	T
CC1(C)S[C@@H]2[C@H](NC(=O)[C@H](NC(=O)c3cc4cccc(O)c4oc3=O)c3ccccc3)C(=O)N2[C@H]1C(=O)O [Example 26]	T
COC(=O)c1cccc2cc(C(=O)N[C@@H](C(=O)N[C@@H]3C(=O)N4[C@@H]3SC(C)(C)[C@@H]4C(=O)O)c3ccccc3)c(=O)oc12 [Example 14]	F
CC(=O)Oc1ccc2cc(C(=O)N[C@@H](C(=O)N[C@@H]3C(=O)N4[C@@H]3SC(C)(C)[C@@H]4C(=O)O)c3ccccc3)c(=O)oc2c1 [Example 12]	F
CCOc1cccc2cc(C(=O)N[C@@H](C(=O)N[C@@H]3C(=O)N4[C@@H]3SC(C)(C)[C@@H]4C(=O)O)c3ccccc3)c(=O)oc12 [Example 19]	F
COc1ccc2cc(C(=O)N[C@@H](C(=O)N[C@@H]3C(=O)N4[C@@H]3SC(C)(C)[C@@H]4C(=O)O)c3ccccc3)c(=O)oc2c1 [Example 8]	F
COc1cccc2cc(C(=O)N[C@@H](C(=O)N[C@@H]3C(=O)N4[C@@H]3SC(C)(C)[C@@H]4C(=O)O)c3ccccc3)c(=O)oc12 [Example 6]	F

====

# Test system: Pseudomonas aeruginosa GN-315
# Method Notes: Bactericidal test (MIC), Pseudomonas aeruginosa GN-315
# Assay type: cell-based
# Experimental Setup: GN315; (15) Pseudomonas aeruginosa GN-315

Compound	MIC (µg/mL)
CC(=O)Oc1ccc2oc(=O)c(C(=O)N[C@@H](C(=O)N[C@@H]3C(=O)N4[C@@H]3SC(C)(C)[C@@H]4C(=O)O)c3ccccc3)cc2c1	6.25
CC(=O)Nc1ccc2oc(=O)c(C(=O)N[C@@H](C(=O)N[C@@H]3C(=O)N4[C@@H]3SC(C)(C)[C@@H]4C(=O)O)c3ccccc3)cc2c1	6.25
CC1(C)S[C@@H]2[C@H](NC(=O)C(C(=O)O)c3ccccc3)C(=O)N2[C@H]1C(=O)O (stereo partly drawn) [Carbenicillin, carbenicillin, reference compound]	100
CC(=O)Oc1ccc2oc(=O)c(C(=O)N[C@@H](C(=O)N[C@@H]3C(=O)N4[C@@H]3SC(C)(C)[C@@H]4C(=O)O)c3ccc(O)cc3)cc2c1	3.13
COc1cc(OC)c2cc(C(=O)N[C@@H](C(=O)N[C@@H]3C(=O)N4[C@@H]3SC(C)(C)[C@@H]4C(=O)O)c3ccccc3)c(=O)oc2c1	6.25
CC1(C)S[C@@H]2[C@H](NC(=O)[C@H](NC(=O)c3cc4cc(O)ccc4oc3=O)c3ccccc3)C(=O)N2[C@H]1C(=O)O	3.13

Data origin: patent US4303664A
